Consider the following compounds; for each one, report its IC50.
ASSAYED_SYSTEM: EIF2AK3 (PERK) catalytic domain (amino acids 536-1116) (Homo sapiens, UniProt Q9NZJ5)
Construct: EIF2AK3 (PERK) catalytic domain (amino acids 536-1116)
Sequence (Q9NZJ5 536-1116): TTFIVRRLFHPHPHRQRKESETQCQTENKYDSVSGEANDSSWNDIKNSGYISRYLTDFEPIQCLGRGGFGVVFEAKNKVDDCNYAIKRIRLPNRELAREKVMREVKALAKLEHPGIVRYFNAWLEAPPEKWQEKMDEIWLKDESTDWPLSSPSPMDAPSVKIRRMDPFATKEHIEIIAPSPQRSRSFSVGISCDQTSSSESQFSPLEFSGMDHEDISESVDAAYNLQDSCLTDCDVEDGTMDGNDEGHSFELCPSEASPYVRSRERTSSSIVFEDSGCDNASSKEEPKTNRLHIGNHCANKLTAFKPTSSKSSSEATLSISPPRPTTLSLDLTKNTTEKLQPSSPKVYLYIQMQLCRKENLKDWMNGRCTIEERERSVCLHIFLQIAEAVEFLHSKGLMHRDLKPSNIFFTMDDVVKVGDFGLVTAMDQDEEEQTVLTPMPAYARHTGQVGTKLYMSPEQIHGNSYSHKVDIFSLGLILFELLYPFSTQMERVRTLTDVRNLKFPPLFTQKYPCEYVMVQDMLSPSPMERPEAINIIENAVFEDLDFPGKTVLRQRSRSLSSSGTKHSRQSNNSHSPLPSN
PROTOCOL_NOTES: PERK in vitro activity assay (isolated), TR-FRET kinase assay
Type: biochemical
ASSAY_CONTEXT: isolated PERK enzyme, 1.5 μM ATP; read-out: Biochemical IC50

Look at each compound and report its IC50.
1. Cc1cc(NC(=O)Cc2ccccc2C(F)(F)F)ccc1-c1cn(C)c2ncnc(N)c12
2. Cc1nc(N)c2c(-c3ccc(NC(=O)C(O)c4cccc(F)c4)c(F)c3)cn(C)c2n1 (stereo not shown) [Example 90]
3. Cc1cc(NC(=O)Cc2cccc3ncccc23)ccc1-c1cn(C)c2ncnc(N)c12
4. Cc1c(-c2cn(C)c3ncnc(N)c23)ccc(NC(=O)C(O)c2cccc(F)c2)c1F (stereo not shown) [Example 118]

Reply |
1 to 25 nM
1 to 25 nM
51 to 100 nM
26 to 50 nM

Look at each compound and report its IC50.
1. Cc1nc(N)c2c(-c3cnc(NC(=O)C(O)c4cccc(C(F)(F)F)c4)cc3C)cn(C)c2n1 (stereo not shown) [Example 132]
2. Cc1nc(N)c2c(-c3ccc(NC(=O)C(O)c4ccccc4Cl)cc3C)cn(C)c2n1 (stereo not shown)
3. Cc1nc(N)c2c(-c3ccc(NC(=O)C(O)c4cc(F)cc(F)c4)cc3C)cn(C)c2n1 (stereo not shown) [Example 52]

Reply |
["1 to 25 nM", "101 to 250 nM", "1 to 25 nM"]

Data provenance: patent US20220356186A1
